Target: VIM-2 metallo-beta-lactamase (Pseudomonas aeruginosa)
Assay: inhibition of VIM-2 substrate hydrolysis – biochemical, epi-absorbance, common IMP-1/VIM-2 hits, dose response (AID 2754)
Conditions: purified VIM-2 enzyme
The source made the active and inactive calls. How the calls were made is not given here.
Just give me one of these, please: active, inactive

Query: recorded result category for `COc1ccc(-c2occ(C(=O)O)c2C(=O)O)cc1` in this test
Reply: inactive

Query: Dear all, I need the recorded test outcome for `O=C1CCN2C=Nc3cccc4ccc1c2c34` , thank you.
Reply: active

Query: Assay outcome for CCOc1cc2c(cc1/C=C/c1noc(C)c1[N+](=O)[O-])OC(C)C2 (stereo not drawn) : what was it?
Reply: inactive

Query: Answer briefly: the call reported for `CNc1ccc2c3c(cccc13)C(=O)N(C)C2=O` in this assay.
Reply: active

Query: Each molecule tested received a call. Report the one for `Cc1cccc(N2C(=O)c3cccc4c(N)ccc(c34)C2=O)c1` .
Reply: inactive

Query: What did this assay record as the result for `CCN(CC)c1ccc2cc(C(=O)NCc3ccc(F)cc3)c(=N)oc2c1` ?
Reply: inactive

Query: Hi, do you know how `CCN(CC)c1ccc2cc(-c3nc4ccccc4[nH]3)c(=O)oc2c1` came out in this test?
Reply: active

Query: Dear colleague, could you share the recorded outcome for `CN(C)/C=C1\C=C2C(=O)c3ccccc3N2C1=O` when you have a moment?
Reply: active

Query: // outcome(item) with item = `CCOC(=O)c1c2c3c(cccc3n(C)c1=O)C(=O)c1ccccc1-2`
Reply: inactive

Query: Recorded test outcome, item `O=C1c2ccccc2-c2onc3ccc(NCCCn4ccnc4)c1c23`
Reply: active

Query: What call does the record list for `COCCCNc1c2c3c(cccc3[nH]c1=O)C(=O)c1ccccc1-2` ?
Reply: active

Query: Identify the outcome logged in this assay for the molecule shown: Cc1ccc(Cn2c(C(C)Nc3nc(-c4ccc(C)cc4)cs3)nc3cc(Cl)c(Cl)cc32)cc1 (stereo not drawn)
Reply: inactive

Query: What did the test return for `CCN(CC)c1ccc2c(-c3ccc(S(=O)(=O)O)cc3S(=O)(=O)[O-])c3ccc(=[N+](CC)CC)cc-3oc2c1` ?
Reply: inactive

Query: Per the assay record, what outcome was assigned to `CCN(CC)c1ccc2cc(C=O)c(=O)oc2c1` ?
Reply: inactive

Query: Look up the recorded call for `COc1ccc(/C=C2\CCCc3c2nc2ccccc2c3C(=O)O)cc1OC` in this test.
Reply: inactive

Query: # lookup: test call for `COc1cc(/C=C2/SC(=S)N(Cc3ccccc3)C2=O)cc(OC)c1O`
Reply: inactive

Query: Returns: the outcome recorded for N#CC(C#N)=C1C=C2C=C(N3CCCCCC3)CCC2CC1 (stereo not drawn) in this assay.
Reply: active

Query: Would you mind telling me which call this test gave `Cc1nn(-c2ccccc2)c(Cl)c1/C=C(\CC(=O)O)c1nc2ccccc2s1` ?
Reply: active

Query: Called result for `CC(C)(C)c1ccc(-c2c(C(=O)O)c(C(=O)O)c3n2CSC3)cc1`
Reply: inactive

Query: Name the outcome recorded for `CCn1c(=S)sc2c(=O)n(CC(=O)Nc3ccccc3C(F)(F)F)c(C)nc21` in the assay.
Reply: inactive

Query: What did this assay record as the result for `CN1C(=O)/C(=C\c2ccc(N(C)C)cc2)OC1=S` ?
Reply: inactive

Query: Identify the outcome logged in this assay for the molecule shown: `Nc1cccc(N2C(=O)c3cccc4c(N)ccc(c34)C2=O)c1`
Reply: inactive

Query: Hello, I am checking results. What call was entered for `O=C(Nc1ccc2oc(-c3ccccc3F)nc2c1)c1ccc([N+](=O)[O-])o1` ?
Reply: inactive

Query: Please let me know the test result on file for `O=C1/C(=C\c2cc(Cl)c(O)c(Cl)c2)SC(=S)N1Cc1ccccc1` .
Reply: inactive

Query: Identify the outcome logged in this assay for the molecule shown: `O=P(O)(O)c1cc(-c2ccccc2)oc1-c1ccccc1`
Reply: inactive

Query: Per the records of this test, what outcome belongs to CC(C)C(CCN1C(=O)c2ccccc2C1=O)c1ccco1 (stereo not drawn) ?
Reply: inactive

Query: Assay outcome for `CC(C)n1cc(/C=C/c2cc[n+](C)cc2)c2ccccc21` : what was it?
Reply: inactive

Query: I would be grateful if you could indicate the recorded call for `O=C1c2cccc3c(O)ccc(c23)C(=O)N1Cc1ccco1` .
Reply: inactive

Query: Hi, sorry to bother you, what did the test record for `COc1ccccc1-c1csc(-n2ncc(C#N)c2N)n1` ?
Reply: inactive

Query: In this assay, the call recorded for `CN1C(=O)c2cccc3c(N)ccc(c23)C1=O` was what?
Reply: active

Query: For `COC(=O)c1sccc1NC(=O)c1ccc(C#N)cc1` , which call appears in the assay record?
Reply: inactive

Query: Called result for `O/C=c1\ccc2cccc3nc(C(F)(F)F)nc1c23`
Reply: active

Query: Status in this test for `Cc1ccc2[nH]cc(/C=C/c3cc[n+](C)cc3)c2c1` ?
Reply: inactive
